# System: Rattus norvegicus
# protocol_description: Evaluated for biodistribution in rat kidney after 1 min of administration
# Type: ADME, organism-based
# test_context: in vivo
property_name: Biodistribution (%)

{"columns": ["structure_as_smiles", "unit_spec", "Biodistribution"],
 "data": [
  ["Ic1ccc(CN2CCCCC2)cc1CN1CCCCC1", "%", 7.75],
  ["CN(C)Cc1ccc(I)c(CN(C)C)c1", "%", 6.19]
]}

I: CC(C)NCc1ccc(I)c(CNC(C)C)c1
II: CN(C)Cc1ccccc1I
Q: Could you tell me which of I and II has the lower Biodistribution reading? Pick one; state its label.
Ans: II
(II: 1.03%, I: 6.71%)
